tested on: southern armyworm; test: Systemic insecticidal activity (soil/water), southern armyworm; type: in vivo, Spodoptera eridania (Cramer); conditions: Spodoptera eridania, 39 ppm, 48-hour exposure, read-out: % Kill, Southern Armyworm
measured.attribute: mortality at 39 ppm (%)
Give the number; % is assumed, so skip it.

compound_structure_string=CCCOP(=O)(OCCC)N(C)SN(C)C(=O)Oc1cccc2c1OC(C)(C)C2 study_system="southern armyworm" value_measured=94

[ask] Consider the molecule `CC(C)OP(=O)(OC(C)C)N(C)SN(C)C(=O)Oc1cccc2c1OC(C)(C)C2` and give its measured mortality at 39 ppm.
[reply] 28

[ask] Another molecule: `CCOP(=O)(OCC)N(CCc1ccccc1)SN(C)C(=O)Oc1cccc2c1OC(C)(C)C2`
[reply] 0

[ask] And the next one, `CCOP(=O)(OCC)N(C)SN(C)C(=O)Oc1cccc2c1OC(C)(C)C2` ?
[reply] 0

* * *

test system: confused flour beetle; test: Initial insecticidal activity, confused flour beetle; type: in vivo, Tribolium confusum Jacquelin duVal; conditions: Tribolium confusum, 1250 ppm, 48-hour exposure, read-out: % Kill, Confused Flour Beetle
Assign labels as follows, please: Criterion met for mortality at 1250 ppm below 50%; Criterion not met for mortality at 1250 ppm equal to or exceeding 50%.

Known results for compounds:
compound_structure_string=CC(C)OP(=O)(OC(C)C)N(C)SN(C)C(=O)Oc1cccc2c1OC(C)(C)C2 study_system="confused flour beetle" classification="Criterion met"
compound_structure_string=CCN(SN(C)C(=O)Oc1cccc2c1OC(C)(C)C2)P(=O)(OC)OC study_system="confused flour beetle" classification="Criterion not met"
compound_structure_string=CCCOP(=O)(OCCC)N(CCC)SN(C)C(=O)Oc1cccc2c1OC(C)(C)C2 study_system="confused flour beetle" classification="Criterion not met"
compound_structure_string=CCCN(SN(C)C(=O)Oc1cccc2c1OC(C)(C)C2)P(=O)(OCC)OCC study_system="confused flour beetle" classification="Criterion not met"
compound_structure_string=CCCN(SN(C)C(=O)Oc1cccc2c1OC(C)(C)C2)P(=O)(Oc1ccccc1)Oc1ccccc1 study_system="confused flour beetle" classification="Criterion met"
compound_structure_string=CCOP(=O)(OCC)N(C)SN(C)C(=O)Oc1cccc2c1OC(C)(C)C2 study_system="confused flour beetle" classification="Criterion met"
compound_structure_string=CCCOP(=O)(OCCC)N(C)SN(C)C(=O)Oc1cccc2c1OC(C)(C)C2 study_system="confused flour beetle" classification="Criterion not met"

With those in mind, consider the next compound.
[ask] Hi there! Is mortality at 1250 ppm for `CCOP(=O)(OCC)N(CCc1ccccc1)SN(C)C(=O)Oc1cccc2c1OC(C)(C)C2` below 50%, do you know?
[reply] Criterion met

* * *

tested on: twospotted spider mite; experiment: Seven-day residual insecticidal activity, twospotted spider mite; format: in vivo, Tetranychus urticae Koch; details: Tetranychus urticae, 39 ppm, 48-hour exposure, read-out: % Kill, Twospotted Spider Mite
measured.attribute: mortality at 39 ppm

molecule="CC(C)OP(=O)(OC(C)C)N(C)SN(C)C(=O)Oc1cccc2c1OC(C)(C)C2 [6(c)]" study_system="twospotted spider mite" measured_attribute="mortality at 39 ppm" value_measured=0%
molecule="CCN(SN(C)C(=O)Oc1cccc2c1OC(C)(C)C2)P(=O)(OC)OC [5(c)]" study_system="twospotted spider mite" measured_attribute="mortality at 39 ppm" value_measured=2%

[ask] Provide the documented mortality at 39 ppm with twospotted spider mite as the system for CCCN(SN(C)C(=O)Oc1cccc2c1OC(C)(C)C2)P(=O)(OCC)OCC [4(c)]
[reply] 0%
